# assay.procedure: Stability of (7aS,2′S)-2-oxo-clopidogrel in plasma, screening of TCEP dosage (Example 4)
# Format: in vitro ADME
# experimental.conditions: plasma, TCEP 50 mg/ml; theoretical 0.1 ng/mL; on ice; 120 min; read-out: Recovery rate
readout.kind: recovery at 120 min, 0.1 ng/mL (%)

[
  {
    "smiles": "COC(=O)[C@H](c1ccccc1Cl)N1CC[C@@H]2SC(=O)C=C2C1",
    "unit.name": "%",
    "result": 91.1
  }
]

---

# assay.procedure: Stability of (7aS,2′S)-2-oxo-clopidogrel in plasma, screening of TCEP dosage (Example 4)
# Assay type: in vitro ADME
# experimental.conditions: plasma without TCEP, No TCEP; theoretical 0.1 ng/mL; on ice; 30 min; read-out: Recovery rate
readout.kind: recovery at 30 min, 0.1 ng/mL (%)

[
  {
    "smiles": "COC(=O)[C@H](c1ccccc1Cl)N1CC[C@@H]2SC(=O)C=C2C1",
    "result": 84.2
  }
]

---

# assay.procedure: Stability of (7aS,2′S)-2-oxo-clopidogrel in plasma at −80° C., screening of reducing agent type (Example 5)
# Type: in vitro ADME
# experimental.conditions: plasma, TCEP 100 mg/ml, theoretical 0.1 ng/mL, day 0, read-out: Recovery rate
readout.kind: recovery at 0 day, 0.1 ng/mL (%)

[
  {
    "molecule": "COC(=O)[C@H](c1ccccc1Cl)N1CC[C@@H]2SC(=O)C=C2C1 [(7aS,2′S)-2-oxo-clopidogrel]",
    "result": 102
  }
]

---

# assay.procedure: Stability of (7aS,2′S)-2-oxo-clopidogrel in plasma, screening of TCEP dosage (Example 4)
# Assay type: in vitro ADME
# experimental.conditions: plasma without TCEP, No TCEP; theoretical 12.0 ng/mL; on ice; 0 min; read-out: Recovery rate
readout.kind: recovery at 0 min, 12 ng/mL (%)

[
  {
    "smiles": "COC(=O)[C@H](c1ccccc1Cl)N1CC[C@@H]2SC(=O)C=C2C1",
    "readout.kind": "recovery at 0 min, 12 ng/mL",
    "result": 102
  }
]

---

# assay.procedure: Stability of (7aS,2′S)-2-oxo-clopidogrel in plasma, screening of TCEP dosage (Example 4)
# Format: in vitro ADME
# experimental.conditions: plasma without TCEP, No TCEP; theoretical 12.0 ng/mL; room temperature; 120 min; read-out: Recovery rate

[
  {
    "compound": "COC(=O)[C@H](c1ccccc1Cl)N1CC[C@@H]2SC(=O)C=C2C1 [(7aS,2′S)-2-oxo-clopidogrel]",
    "unit.name": "%",
    "recovery at 120 min, 12 ng/mL": 54.8
  }
]

---

# assay.procedure: Stability of (7aS,2′S)-2-oxo-clopidogrel in plasma at −80° C., screening of reducing agent type (Example 5)
# Type: in vitro ADME
# experimental.conditions: blank plasma containing DTT 100 mg/ml, DTT 100 mg/ml, theoretical 0.1 ng/mL, day 30, read-out: Recovery rate
readout.kind: recovery at 30 day, 0.1 ng/mL (%)

[
  {
    "smiles": "COC(=O)[C@H](c1ccccc1Cl)N1CC[C@@H]2SC(=O)C=C2C1",
    "unit.name": "%",
    "result": 95.5
  }
]

---

# assay.procedure: Stability of (7aS,2′S)-2-oxo-clopidogrel in plasma, screening of TCEP dosage (Example 4)
# Type: in vitro ADME
# experimental.conditions: plasma without TCEP, No TCEP; theoretical 12.0 ng/mL; room temperature; 0 min; read-out: Recovery rate

[
  {
    "molecule": "COC(=O)[C@H](c1ccccc1Cl)N1CC[C@@H]2SC(=O)C=C2C1 [(7aS,2′S)-2-oxo-clopidogrel]",
    "recovery at 0 min, 12 ng/mL": "102%"
  }
]
